Test system: Plasmodium berghei
MEASUREMENT_PROTOCOL: Screen against P. berghei liver stage (PbLuc), transformed with Luciferase, at 2uM
Type: functional, HepG2
RECORDED_CONDITIONS: tested at 2 uM
The campaign covered roughly 68,000 compounds. About 2,700 (4%) showed an effect of 50% or more. The entries come from a sample that favours strong results as a whole.
Entries annotated with measured INHIBITION
OBSERVED_PROPERTY: INHIBITION (%)

>  <MOLECULE>
O=C(N1CCCC1)N1CCC[C@]2(C[C@@H](OCc3ccncc3)CO2)C1

>  <UNIT_SPEC>
%

>  <VALUE_MEASURED>
-12.23

$$$$
>  <MOLECULE>
Cc1cc(NC(=O)c2ccc(F)cc2Cl)n(C)n1

>  <UNIT_SPEC>
%

>  <VALUE_MEASURED>
56.53

$$$$
>  <MOLECULE>
CCS(=O)(=O)CCNC(=O)[C@@]12CNC[C@@H]1CN(C1CCCC1)C2

>  <UNIT_SPEC>
%

>  <VALUE_MEASURED>
-13.8

$$$$
>  <MOLECULE>
CC(C(=O)N1CCCC1)N1CCC(c2nccn2CC2CCC2)CC1 (configuration not stated)

>  <UNIT_SPEC>
%

>  <VALUE_MEASURED>
-19.54

$$$$
>  <MOLECULE>
O=C(NCc1cccnc1)[C@@H]1CC[C@@H]2[C@@H](CCN2c2ncccn2)O1

>  <UNIT_SPEC>
%

>  <VALUE_MEASURED>
25.5

$$$$
>  <MOLECULE>
CC(NC(=O)N1CCc2ccccc2C1)c1nncn1C (configuration not stated)

>  <UNIT_SPEC>
%

>  <VALUE_MEASURED>
-56.96

$$$$
>  <MOLECULE>
CC(CO)NC(=O)Nc1ccc(COC2CCCC2)cc1 (configuration not stated)

>  <UNIT_SPEC>
%

>  <VALUE_MEASURED>
31.97

$$$$
>  <MOLECULE>
CCCS(=O)(=O)N1CCC(n2nc(-c3cc(C)oc3C)ccc2=O)CC1

>  <UNIT_SPEC>
%

>  <VALUE_MEASURED>
-17.72

$$$$
>  <MOLECULE>
CCc1nc(CN2CCN(C(=O)c3csnn3)CC2)cs1

>  <UNIT_SPEC>
%

>  <VALUE_MEASURED>
32.64

$$$$
>  <MOLECULE>
O=C(Nc1ccc(F)cc1)C(c1ccccc1)N1CCOCC1 (configuration not stated)

>  <UNIT_SPEC>
%

>  <VALUE_MEASURED>
71.1

$$$$
>  <MOLECULE>
O=C(c1cccs1)N1CC[C@H]2C[C@@H](c3nnc(C4CC4)o3)O[C@@H]2C1

>  <UNIT_SPEC>
%

>  <VALUE_MEASURED>
31.41

$$$$
>  <MOLECULE>
CCO[C@H]1CO[C@@]2(CCCN(C(=O)c3ccc(OC)c(F)c3)C2)C1

>  <UNIT_SPEC>
%

>  <VALUE_MEASURED>
52.36

$$$$
>  <MOLECULE>
CN(Cc1cnn(C)c1)C(=O)C1COc2ccccc2C1 (configuration not stated)

>  <UNIT_SPEC>
%

>  <VALUE_MEASURED>
-11.77

$$$$
>  <MOLECULE>
Cn1ccc(CN2CCC(NC(=O)NC3CCCCC3)CC2)cc1=O

>  <UNIT_SPEC>
%

>  <VALUE_MEASURED>
54.85

$$$$
>  <MOLECULE>
CCNC(=O)C1CCN(Cc2ccc(C(=O)Nc3cnns3)cc2)C1 (configuration not stated)

>  <UNIT_SPEC>
%

>  <VALUE_MEASURED>
29.78

$$$$
>  <MOLECULE>
O=C(NCCOCCO)[C@@]12CNC[C@@H]1CN(C1CCCC1)C2

>  <UNIT_SPEC>
%

>  <VALUE_MEASURED>
45.82

$$$$
>  <MOLECULE>
CN(CCCN1CCCC1)[C@@H]1c2ccccc2C2(CCNCC2)[C@H]1O

>  <UNIT_SPEC>
%

>  <VALUE_MEASURED>
9.18

$$$$
>  <MOLECULE>
O=C(CCc1ccsc1)N1CCC(n2cc(CO)nn2)CC1

>  <UNIT_SPEC>
%

>  <VALUE_MEASURED>
-25.13

$$$$
>  <MOLECULE>
O=C(Cc1ccsc1)N1CCC(Cn2cc(CCO)nn2)CC1

>  <UNIT_SPEC>
%

>  <VALUE_MEASURED>
12.57

$$$$
>  <MOLECULE>
Cc1cccc2c1ccn2CCC(=O)O

>  <UNIT_SPEC>
%

>  <VALUE_MEASURED>
4.39

$$$$
>  <MOLECULE>
Cc1cccc(N2CCN(C(=O)NC(C)c3nncn3C)CC2)c1 (configuration not stated)

>  <UNIT_SPEC>
%

>  <VALUE_MEASURED>
48.64

$$$$
>  <MOLECULE>
Cc1nc(N2CCN(C(=O)c3ccsc3)CC2)c2cnn(C)c2n1

>  <UNIT_SPEC>
%

>  <VALUE_MEASURED>
42.11

$$$$
>  <MOLECULE>
COc1ccc2c(ccn2CCCN)c1

>  <UNIT_SPEC>
%

>  <VALUE_MEASURED>
-19.92

$$$$
>  <MOLECULE>
Cc1ncc(CNCC2CCC(C(N)=O)CC2)n1-c1ccccc1 (configuration not stated)

>  <UNIT_SPEC>
%

>  <VALUE_MEASURED>
72.05

$$$$
>  <MOLECULE>
COCc1cn(C2CCN(C(=O)Cc3ccsc3)CC2)nn1

>  <UNIT_SPEC>
%

>  <VALUE_MEASURED>
53.98

$$$$
>  <MOLECULE>
Cc1ocnc1C(=O)N(C)[C@@H]1CC[C@@H](Oc2ccccc2)[C@@H]1O

>  <UNIT_SPEC>
%

>  <VALUE_MEASURED>
67.27

$$$$
>  <MOLECULE>
CN(C)C(=O)c1cccc(C[S+]([O-])CC(=O)NC2CCCC2)c1 (configuration not stated)

>  <UNIT_SPEC>
%

>  <VALUE_MEASURED>
-13.12

$$$$
>  <MOLECULE>
Cc1ccc2c(c1)N(C(=O)C1CCCOC1)CCC2 (configuration not stated)

>  <UNIT_SPEC>
%

>  <VALUE_MEASURED>
-13.38

$$$$
>  <MOLECULE>
Cc1ccc(C(O)CNC(=O)Nc2cc(C)nn2C)cc1 (configuration not stated)

>  <UNIT_SPEC>
%

>  <VALUE_MEASURED>
-15.64

$$$$
>  <MOLECULE>
Cc1nccn1C1CCCN(C(=O)c2cccc(S(C)(=O)=O)c2)C1 (configuration not stated)

>  <UNIT_SPEC>
%

>  <VALUE_MEASURED>
5.72

$$$$
>  <MOLECULE>
Cc1cnn(CC2CCCN2C(=O)c2cccc(CC#N)c2)c1 (configuration not stated)

>  <UNIT_SPEC>
%

>  <VALUE_MEASURED>
-17.11

$$$$
>  <MOLECULE>
Cn1ccc(CN2CCC(NC(=O)C3CCCCC3)CC2)cc1=O

>  <UNIT_SPEC>
%

>  <VALUE_MEASURED>
-24.26

$$$$
>  <MOLECULE>
CC(NC(=O)N1CCN(c2ccccc2)CC1)c1nncn1C (configuration not stated)

>  <UNIT_SPEC>
%

>  <VALUE_MEASURED>
50.72

$$$$
>  <MOLECULE>
CC(O)CN1CCC(CN(C)Cc2cc(F)cc3cccnc23)CC1 (configuration not stated)

>  <UNIT_SPEC>
%

>  <VALUE_MEASURED>
-0.44

$$$$
>  <MOLECULE>
Cc1nc(C(=O)N(C)[C@@H]2CCC[C@@H](Oc3ccccc3)[C@@H]2O)co1

>  <UNIT_SPEC>
%

>  <VALUE_MEASURED>
9.47

$$$$
>  <MOLECULE>
O=C(C1CC1)N1CCC[C@]2(C[C@@H](OCc3ccncc3)CO2)C1

>  <UNIT_SPEC>
%

>  <VALUE_MEASURED>
2.4

$$$$
>  <MOLECULE>
Cc1nn(C)cc1-c1cc(C(F)(F)F)c2c(C)nn(CC(=O)O)c2n1

>  <UNIT_SPEC>
%

>  <VALUE_MEASURED>
15.91

$$$$
>  <MOLECULE>
Cc1cc(NC(=O)NCC(O)c2ccc(F)c(F)c2)n(C)n1 (configuration not stated)

>  <UNIT_SPEC>
%

>  <VALUE_MEASURED>
-12.19

$$$$
>  <MOLECULE>
CCc1nc2ccccc2n1C(CC)C(=O)N(C)Cc1noc(C)n1 (configuration not stated)

>  <UNIT_SPEC>
%

>  <VALUE_MEASURED>
-0.85

$$$$
>  <MOLECULE>
CCO[C@H]1CO[C@@]2(CCCN(S(=O)(=O)c3cccnc3)C2)C1

>  <UNIT_SPEC>
%

>  <VALUE_MEASURED>
50.35

$$$$
>  <MOLECULE>
c1cc(CN2CCC(c3nnc4n3CCCCC4)CC2)c2nonc2c1

>  <UNIT_SPEC>
%

>  <VALUE_MEASURED>
-60.89

$$$$
>  <MOLECULE>
COc1ccc(NC(=O)C(c2ccc(OC)cc2)N2CCOCC2)cc1 (configuration not stated)

>  <UNIT_SPEC>
%

>  <VALUE_MEASURED>
27.22

$$$$

Cited source: ChEMBL document CHEMBL4513216
